# assayedTarget: HIV-1 Env of isolate MGRM-D-024 (subtype D) (HIV-1)
# measurementDescription: cell-based or functional assay
recordedEndpoint: IC50 (neutralization) (µg/mL)
Write the number in µg/mL without appending the unit.

Exam item: Report measured IC50 (neutralization); entry is PGT-123 (antibody, V domains shown) VH: QLHLQESGPGLVKPPETLSLTCSVSGASINDAYWSWIRQSPGKRPEWVGYVHHSGDTNYNPSLKRRVTFSLDTAKNEVSLKLVDLTAADSATYFCARALHGKRIYGIVALGELFTYFYMDVWGKGTAVTVSS VL: SSMSVSPGETAKISCGKESIGSRAVQWYQQKPGQPPSLIIYNNQDRPAGVPERFSASPDFRPGTTATLTITNVDAEDEADYYCHIYDARGGTNWVFDRGTTLTVL
Marked response: 0.023

Exam item: Report measured IC50 (neutralization); entry is PGT-126 (antibody, V domains shown) VH: QPQLQESGPGLVEASETLSLTCTVSGDSTAACDYFWGWVRQPPGKGLEWIGGLSHCAGYYNTGWTYHNPSLKSRLTISLDTPKNQVFLKLNSVTAADTAIYYCARFDGEVLVYHDWPKPAWVDLWGRGTLVTVSS VL: QSALTQPPSASGSPGQSISISCTGTSNRFVSWYQQHPGKAPKLVIYGVNKRPSGVPDRFSGSKSGNTASLTVSGLQTDDEAVYYCSSLVGNWDVIFGGGTKLTVL
Marked response: 0.376

Exam item: Report measured IC50 (neutralization); entry is PGT-128 (antibody, V domains shown) VH: QPQLQESGPTLVEASETLSLTCAVSGDSTAACNSFWGWVRQPPGKGLEWVGSLSHCASYWNRGWTYHNPSLKSRLTLALDTPKNLVFLKLNSVTAADTATYYCARFGGEVLRYTDWPKPAWVDLWGRGTLVTVSS VL: QSALTQPPSASGSPGQSITISCTGTSNNFVSWYQQHAGKAPKLVIYDVNKRPSGVPDRFSGSKSGNTASLTVSGLQTDDEAVYYCGSLVGNWDVIFGGGTKLTVL
Marked response: 0.067
